- target_of_assay: T1, MET928 (cMET protein derived from construct 25-928) (human, UniProt P08581 25-928)
- T1 construct: MET ectodomain, residues 1-24 are the leader; produced in Lec 8 cells; background text says the ectodomain is furin-cleaved into alpha (25-307) and beta chains; biotinylated form used in selections; also called MET928 extracellular domain; Met extracellular domain
- assay_explanation: ELISA, soluble scFv

- binder: "107_C1 (scFv, not shown: 6xHis/tri-FLAG tags) scFv: QMQLVQSGAEVKKPGAPVKVSCKVSGYTFTDYYMHWVQQAPGKGLEWMGLVDPEDGETIYAEKFQGRVTITADTSTDTAYMELSSLRSEDTAVYYCATDATTPYWGMSMWGQGTLVTVSSLEGGGGSGGGGSGGGASDIQMTQSPSSLSASVGDRVTITCQASQDISNYLNWYQQKPGRAPKVLIYDASNLETGVPSRFSGSGSGTEFTLTISNLRPDDFATYYCQQGDSFPLTFGGGTKVEIK"
  binding result: "binds"
- binder: "112_G4 (scFv, not shown: 6xHis/tri-FLAG tags) scFv: QMQLVQSGAEVKKPGAPVKVSCKVSGYTFTDYYMHWVQQAPGKGLEWMGLVDPEDGETIYAEKFQGRVTITADTSTDTAYMELSSLRSEDTAVYYCATDATTPYWGAQSWGQGTLVTVSSLEGGGGSGGGGSGGGASDIQMTQSPSSLSASVGDRVTITCQASQDISNYLNWYQQKPGRAPKVLIYDASNLETGVPSRFSGSGSGTEFTLTISNLRPDDFATYYCQQGDSFPLTFGGGTKVEIK"
  binding result: "binds"
- binder: "108_E12 (scFv, not shown: 6xHis/tri-FLAG tags) scFv: QMQLVQSGAEVKKPGAPVKVSCKVSGYTFTDYYMHWVQQAPGKGLEWMGLVDPEDGETIYAEKFQGRVTITADTSTDTAYMELSSLRSEDTAVYYCATDATTPYWLAAEWGQGTLVTVSSLEGGGGSGGGGSGGGASDIQMTQSPSSLSASVGDRVTITCQASQDISNYLNWYQQKPGRAPKVLIYDASNLETGVPSRFSGSGSGTEFTLTISNLRPDDFATYYCQQGDSFPLTFGGGTKVEIK"
  binding result: "binds"
